- Substrate: CC(=O)Oc1ccc([N+](=O)[O-])cc1
- Assay Summary: purified protein
- Assay type: biochemical, Dorea formicigenerans
- Run Parameters: 10 mM Tris-HCl pH 8.4, 2.5% Triton X-100, 40 °C

>  <Protein>
DfFAE (Dorea formicigenerans; N156A) (protein, E. coli T7; trimeric by SEC (117 kDa)) MNQKKECMDVHVNGLKFHVQTFGSGVPIIMIMGLGAPGDKWKHNYELLSKWFWCIVPDNRGAGLSDKPEAESYTTEQMADDIIGIMDALDIKKAHVMGVSMGGAIAQQVALKVPDRVLSLILTSTFASVSPAFKKALNLICELKEDTDPAVLKQLALWMTYGQYTQIHHPEKIEKSIEEDAAYPYPMPVYAYKAQCGACLSHNTAGRLHELKMPVLIAAGAKDLFMNIEKTMELVHGIPQAEFYLAPEGGHVHQWEYPEPYDSVVVGFLMKHTN

>  <kcat/Km [M⁻¹ s⁻¹]>
22900

$$$$
